Target: human GLS1 (Homo sapiens, UniProt O94925)
Sequence (O94925 55-669): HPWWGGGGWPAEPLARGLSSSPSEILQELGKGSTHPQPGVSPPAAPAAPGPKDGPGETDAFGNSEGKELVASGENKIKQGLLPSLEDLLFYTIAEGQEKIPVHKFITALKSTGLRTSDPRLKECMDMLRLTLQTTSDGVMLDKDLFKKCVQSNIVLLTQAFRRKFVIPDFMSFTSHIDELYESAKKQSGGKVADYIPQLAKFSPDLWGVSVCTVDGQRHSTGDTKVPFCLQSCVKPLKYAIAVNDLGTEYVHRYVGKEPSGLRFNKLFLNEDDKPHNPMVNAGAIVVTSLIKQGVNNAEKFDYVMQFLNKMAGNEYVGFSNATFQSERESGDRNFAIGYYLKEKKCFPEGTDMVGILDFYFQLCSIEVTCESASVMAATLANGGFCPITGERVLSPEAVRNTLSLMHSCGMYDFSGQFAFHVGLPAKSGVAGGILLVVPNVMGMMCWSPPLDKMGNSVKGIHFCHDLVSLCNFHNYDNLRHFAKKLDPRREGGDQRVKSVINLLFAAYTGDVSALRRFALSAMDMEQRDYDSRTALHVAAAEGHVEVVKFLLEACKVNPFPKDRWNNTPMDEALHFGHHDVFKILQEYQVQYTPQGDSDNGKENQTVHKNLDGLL
Test: GLS1 inhibitor screening kit in MDA-MB-231 cells
Conditions: 48 h, read-out: GLS1 inhibition IC50
Protocol: The GLS1 inhibitory activity of compound 3g in MDA-MB-231 cells was evaluated using a GLS1 inhibitor screening kit. MDA-MB-231 cells were cultured for 24 h and then incubated with different concentrations of 3g or 0.1%DMSO for 48 h and washed with PBS 1–2 times. […] Next, the GLS1 activity in human GLS1 was evaluated according to the manufacturer’s guidelines using a GLS1 screening kit (Sangon Biotech #D799306, Shanghai, China) in a 96-well plate (Corning # 351172, New York, NY, USA).
ASSAY_READOUT: pIC50
Recall that pIC50 is obtained by taking minus log10 of the concentration measured in molar.

Entry CC(C)[C@@H](C)/C=C/[C@@H](C)[C@H]1CC[C@@H]2[C@]1(C)CC[C@H]1[C@]23C=C[C@]2(C[C@@H](O)CC[C@]12C)OO3 [EP, Ergosterol peroxide] , pIC50 reported as 4.47

Entry under test: COc1ccc(NC(=O)CCCC(=O)OC2CCC3(C)C4CCC5(C)C(C(C)C=CC(C)C(C)C)CCC5C45C=CC3(C2)OO5)cc1 (centres unmarked) . Its pIC50 was 5.42
